- Tested on: NCI-H460
- PROTOCOL: Cytotoxicity against human NCI-H460 cells after 72 hrs by MTT assay
- Assay type: functional, cell-based
- MEASUREMENT_PARAMETERS: NCI-H460, 72 h
Field: IC50. Provide a value for each of the molecules that follow.

Working through the 2 molecules below one at a time, give IC50 for each.
1. O=c1[nH]cc(F)c(=O)[nH]1
2. CC(C)C1=C[C@]23CC[C@@H]4[C@](C)(CCC[C@@]4(C)C(=O)O)[C@H]2C[C@H]1[C@H]1C(=O)OC(=O)[C@H]13

Output:
1: 23.3 µM; 2: > 100 µM

Each recorded value in this set is attributed to ChEMBL document CHEMBL3091442.
